The reported measurements were obtained from the NIST ThermoML archive (doi:10.1021/je060217u).

Measured mass density values are reported for all entries that follow.
Settings: 298.15 K; 101 kPa; Liquid

compound | mass density, kg/m3
CCCO | 799.75
CCO | 785.2
CCCCO | 806.04
COC(=O)OC [dimethyl carbonate] | 1063.19
